The measured values listed here are drawn from ChEMBL document CHEMBL3046062.

Below is a list of entries, each paired with its recorded MIC99 value.
system: Aspergillus niger; test: Antifungal activity against Aspergillus niger MTCC 282 after overnight incubation by broth microdilution method; assay type: functional
readout: MIC99 (µg/mL)

* Clc1ccc(-c2nnc(-c3cccnc3)n2Nc2nc3ccc(Cl)cc3s2)cc1 | 500
* Clc1ccc(-c2nnc(-c3cccnc3)n2Nc2nc3ccc(Br)cc3s2)cc1 | 500
* Cc1cccc2sc(Nn3c(-c4ccc(Cl)cc4)nnc3-c3cccnc3)nc12 | 500
* Clc1ccc(-c2nnc(-c3cccnc3)n2Nc2nc3c(Cl)cccc3s2)cc1 | 500
* Clc1ccc(-c2nnc(-c3cccnc3)n2Nc2nc3cc(Cl)c(Cl)cc3s2)cc1 | 250
* COC1=CC(=O)C[C@@H](C)[C@]12Oc1c(Cl)c(OC)cc(OC)c1C2=O [GRISEOFULVIN] | 100
* Fc1ccc2nc(Nn3c(-c4ccc(Cl)cc4)nnc3-c3cccnc3)sc2c1 | 500
* O=[N+]([O-])c1cccc2sc(Nn3c(-c4ccc(Cl)cc4)nnc3-c3cccnc3)nc12 | 500
* Clc1ccc(-c2nnc(-c3cccnc3)o2)cc1 | 1000
* O=[N+]([O-])c1ccc2nc(Nn3c(-c4ccc(Cl)cc4)nnc3-c3cccnc3)sc2c1 | 500
* Cc1ccc2nc(Nn3c(-c4ccc(Cl)cc4)nnc3-c3cccnc3)sc2c1 | 1000
* COc1ccc2nc(Nn3c(-c4ccc(Cl)cc4)nnc3-c3cccnc3)sc2c1 | 500
